test system: HEK-293T; assay: Incucyte cell viability with HEK293T; type: toxicity, cell-based; settings: human, 0 h, 10 µM, compound concentration 10 uM, replicate number 1; note: unitless GR value; below 1 slowed growth and below 0 cell loss
Classify as follows. Reported Growth Rate greater than or equal to 0.7: True. Reported Growth Rate below: False.

INSERT INTO measurements (molecule, group) VALUES
  ('O=C(NCCS(=O)(=O)c1ccc(C(F)(F)F)cn1)c1ccc(Cl)cc1', 'False'),
  ('Cc1cc(OCCC(C)(C)O)cc(C)c1-c1ccc(F)c2c1CC[C@H]2Oc1ccc2c(c1)OC[C@H]2CC(=O)O', 'True'),
  ('CC(=O)Nc1nc2c(Oc3cc(-c4ccc(C(F)(F)F)cc4)ncn3)cccc2s1', 'True'),
  ('Cc1c(N2CCCC2)nc2ccc(Br)cc2c1C(=O)NC[C@H](CCC(=O)O)c1ccccc1Cl.Cl.O', 'False'),
  ('CN(C)Cc1cccc(NC(=C2C(=O)Nc3cc(C(N)=O)ccc32)c2ccccc2)c1', 'True');

###

test system: Fibroblast; assay: Incucyte cell viability with human fibroblast; type: toxicity, cell-based; settings: 6 h, 10 µM, compound concentration 10 uM, replicate number 2; note: unitless GR value; below 1 slowed growth and below 0 cell loss
endpointName: Growth Rate

INSERT INTO results (compound, experimentalsystem, result) VALUES
  ('Cc1cc(SCc2sc(-c3ccc(C(F)(F)F)cc3)nc2C)ccc1OCC(=O)O [GW501516]', 'Fibroblast', 0.42),
  ('c1ccc(C(OC2CCN(CCCc3nnn[nH]3)CC2)c2ccccc2)cc1', 'Fibroblast', -0.26),
  ('CC(C)(C)OC(=O)CN(Cc1ccc(Cl)cc1)Cc1ccc([N+](=O)[O-])s1 [GSK-4112]', 'Fibroblast', -0.08),
  ('CCOC(=O)c1cnn(-c2ccc(NC(=O)C(Cl)=C(Cl)Cl)cc2)c1C(F)(F)F', 'Fibroblast', -1),
  ('CS(=O)(=O)NC(=O)CCC/C=C\C[C@H]1C(=O)C[C@@H](O)[C@@H]1/C=C/[C@@H](O)COc1ccccc1 [SULPROSTONE]', 'Fibroblast', 0.85),
  ('Cc1nsc(Nc2cnc(C(F)(F)F)cn2)c1C(=O)Nc1ccc(O[C@H]2CCCN(CC(F)(F)F)C2)nc1', 'Fibroblast', -0.93),
  ('CC[C@H](Nc1c(C#N)c(-c2ccc(-c3cccc(C)c3F)cc2)nc2cnccc12)C(=O)O [BAY-0361]', 'Fibroblast', 0.85),
  ('COc1c(NC(=O)c2cc3cccc(Oc4ccnc(C(=O)N5CCN(C)CC5)c4)c3n2C)cc(C(C)(C)C)cc1NS(C)(=O)=O', 'Fibroblast', 0.43),
  ('COc1cc(N)c(Cl)cc1C(=O)NC1CN2CCC1CC2.Cl (stereo not drawn)', 'Fibroblast', -0.28),
  ('CN[C@@H](C)C(=O)N[C@H]1CN(C(=O)CC(C)C)CC[C@H]2CC[C@@H](C(=O)NC(c3ccccc3)c3ccccc3)N2C1=O [XEVINAPANT]', 'Fibroblast', 0.35),
  ('CCn1c(-c2nonc2N)nc2c(C#CC(C)(C)O)ncc(OCC3CCCNC3)c21 (stereo not drawn)', 'Fibroblast', -0.99),
  ('Cc1cc(CN)cc(C)c1-c1ncn(C)c1-c1cncn1C.Cl', 'Fibroblast', -0.33),
  ('COc1cccc(CNc2ccc(S(=O)(=O)Nc3nc4ccccc4s3)cc2)c1O [VLX-1005]', 'Fibroblast', 0.25),
  ('COCCc1ccc(-c2c(C)nc3c(N4CCOCC4)ccnn23)cn1 [JNJ-42396302]', 'Fibroblast', 0.78),
  ('c1ccc2nc(N3CCNCC3)ccc2c1 [QUIPAZINE]', 'Fibroblast', 0.04),
  ('CNc1nc(Nc2ccc(C(=O)N3CCOCC3)cc2OC)ncc1Cl', 'Fibroblast', 0.67),
  ('COc1ccc(CCCN2CCC(COC(c3ccccc3)c3ccccc3)CC2)cc1.Cl', 'Fibroblast', -1),
  ('COc1cc2ncnc(Nc3ccc(F)c(Cl)c3)c2cc1OCCN(C)C[C@H](C)O', 'Fibroblast', 0.44);

These entries and their values trace back to ChEMBL document CHEMBL5303304.
